Source of measurements: paper PMC9562916

# Test system: Caco-2 cell monolayer
# measurement.description: Caco-2 transepithelial transport assay of digested red wine
# Type: in vitro ADME, human
# measurement.parameters: Tianzhu red wine, digested sample, basolateral side of Caco-2 monolayer
Marks after values point to notes of the source that are not given here.
Catalogue of PC Contents, Tianzhu, Transmembrane readings, one per entry.

compound	PC Contents, Tianzhu, Transmembrane
COc1cc(-c2oc3cc(O)cc(O)c3c(=O)c2O[C@@H]2O[C@H](CO)[C@@H](O)[C@H](O)[C@H]2O)ccc1O	1.97 ± 0.07 ^a mg/L
OC[C@H]1O[C@@H](Oc2cc3c(O)cc(O)cc3[o+]c2-c2cc(O)c(O)c(O)c2)[C@H](O)[C@@H](O)[C@@H]1O [Delphinidin-3-glc, delphinidin-3-glucoside]	0.57 ± 0.02 ^a mg/L
O=C(O)c1cc(O)c(O)c(O)c1	1.38 ± 0.05 ^a mg/L
CC(=O)OCC1OC(Oc2cc3c(O)cc(O)cc3[o+]c2-c2cc(O)c(O)c(O)c2)C(O)C(O)C1O (stereo not shown)	0.04 ± 0.002 ^a mg/L
O=c1c(O[C@@H]2O[C@H](CO)[C@@H](O)[C@H](O)[C@H]2O)c(-c2ccc(O)c(O)c2)oc2cc(O)cc(O)c12 [Isoquercetin]	3.81 ± 0.18 ^a mg/L
COc1cc(-c2[o+]c3cc(O)cc(O)c3cc2O[C@@H]2O[C@H](CO)[C@@H](O)[C@H](O)[C@H]2O)cc(OC)c1O [Malvidin-3-glc, malvidin-3-glucoside]	20.68 ± 1.05 ^a mg/L
CCOC(=O)c1cc(O)c(O)c(O)c1 [Ethyl gallate]	8.13 ± 0.28 ^a mg/L

* * *

molecules and their reported Apparent Permeability Coefficients, Helanshan
# Tested on: Caco-2 cell monolayer
# measurement.description: Caco-2 transepithelial transport assay of digested red wine
# Type: in vitro ADME, human
# measurement.parameters: apical to basolateral, digested Helanshan red wine
Marks after values point to notes of the source that are not given here.
attribute.measured: Apparent Permeability Coefficients, Helanshan

molecule	data.value
CC(=O)OCC1OC(Oc2cc3c(O)cc(O)cc3[o+]c2-c2cc(O)c(O)c(O)c2)C(O)C(O)C1O (stereo not drawn)	8.64 ± 1.38 ^a ×10^−6 cm/s
OC[C@H]1O[C@@H](Oc2cc3c(O)cc(O)cc3[o+]c2-c2cc(O)c(O)c(O)c2)[C@H](O)[C@@H](O)[C@@H]1O [Delphinidin-3-glc, delphinidin-3-glucoside]	12.59 ± 2.64 ^a ×10^−6 cm/s
COc1cc(-c2[o+]c3cc(O)cc(O)c3cc2O[C@@H]2O[C@H](CO)[C@@H](O)[C@H](O)[C@H]2O)cc(OC)c1O [Malvidin-3-glc, malvidin-3-glucoside]	25.19 ± 3.99 ^a ×10^−6 cm/s

* * *

# System: Caco-2 cell monolayer
# measurement.description: Caco-2 transepithelial transport assay of digested red wine
# Format: in vitro ADME, human
# measurement.parameters: Caco-2
Marks after values point to notes of the source that are not given here.
Overview of reported PC Contents, Helanshan, Transmembrane across a group of compounds:

compound	tested.on	PC Contents, Helanshan, Transmembrane
O=C(/C=C/c1ccc(O)cc1)O[C@@H](C(=O)O)[C@@H](O)C(=O)O	Caco-2 cell monolayer	0.61 ± 0.03 ^a mg/L
COc1cc(/C=C/C(=O)OC(C(=O)O)C(O)C(=O)O)ccc1O (stereo not drawn)	Caco-2 cell monolayer	0.81 ± 0.04 ^a mg/L
COc1cc(-c2oc3cc(O)cc(O)c3c(=O)c2O[C@@H]2O[C@H](CO)[C@@H](O)[C@H](O)[C@H]2O)cc(O)c1O	Caco-2 cell monolayer	0.55 ± 0.03 ^a mg/L
COc1cc(-c2oc3cc(O)cc(O)c3c(=O)c2O[C@@H]2O[C@H](CO)[C@@H](O)[C@H](O)[C@H]2O)cc(OC)c1O	Caco-2 cell monolayer	0.91 ± 0.03 ^a mg/L
COc1cc(-c2[o+]c3cc(O)cc(O)c3cc2O[C@@H]2O[C@H](CO)[C@@H](O)[C@H](O)[C@H]2O)cc(O)c1O	Caco-2 cell monolayer	1.40 ± 0.05 ^a mg/L
COc1cc(-c2[o+]c3cc(O)cc(O)c3cc2OC2OC(COC(C)=O)C(O)C(O)C2O)cc(O)c1O (stereo not drawn)	Caco-2 cell monolayer	0.18 ± 0.005 ^a mg/L
